Field: Activity. Provide a value for each of the molecules that follow.
# Tested on: A549
# Method Summary: Cell cycle arrest in human A549 cells assessed as accumulation at G1 phase at 5 uM after 48 hrs by propidium iodide staining-based flow cytometric analysis (reference value: 50.70%)
# Format: functional
Write the number in % without appending the unit.

// query Returns the measured Activity for the input molecule. Input: COc1ccc(/C=C/C(=O)c2ccc3c(c2)NC(=O)CO3)c(OC)c1
// result 57.92

// query Returns the measured Activity for the input molecule. Input: O=C1COc2ccc(C(=O)/C=C/c3ccccc3)cc2N1
// result 55.27

// query Returns the measured Activity for the input molecule. Input: COc1cc(/C=C/C(=O)c2ccc3c(c2)NC(=O)CO3)cc(OC)c1
// result 75.46

// query Returns the measured Activity for the input molecule. Input: O=C1COc2ccc(C(=O)/C=C/c3ccc4c(c3)OCO4)cc2N1
// result 63.37

---

# Test system: A549
# Method Summary: Induction of apoptosis in human A549 cells assessed as increase in apoptotic bodies formation at 5 uM measured at 48 hrs by Hoechst 33258 staining-based fluorescence microscopic analysis
# Assay type: functional, cell-based
Activity calls are given as the source filed them. The rule behind the calls is not given here.
Readout Type: Activity

Mol | Recorded Result
COc1cc(/C=C/C(=O)c2ccc3c(c2)NC(=O)CO3)cc(OC)c1 | inactive
O=C1COc2ccc(C(=O)/C=C/c3ccccc3)cc2N1 | inactive
O=C1COc2ccc(C(=O)/C=C/c3ccc4c(c3)OCO4)cc2N1 | inactive
COc1ccc(/C=C/C(=O)c2ccc3c(c2)NC(=O)CO3)c(OC)c1 | inactive
